# target.under.test: STAT6 (endogenous, HiBiT-tagged) in HeLa LgBiT clone 4.14 cells (Homo sapiens, UniProt P42226)
# Construct: These cells express endogenous STAT6; host or cells: HeLa LgBiT clone 4.14
# Sequence (P42226 whole entry): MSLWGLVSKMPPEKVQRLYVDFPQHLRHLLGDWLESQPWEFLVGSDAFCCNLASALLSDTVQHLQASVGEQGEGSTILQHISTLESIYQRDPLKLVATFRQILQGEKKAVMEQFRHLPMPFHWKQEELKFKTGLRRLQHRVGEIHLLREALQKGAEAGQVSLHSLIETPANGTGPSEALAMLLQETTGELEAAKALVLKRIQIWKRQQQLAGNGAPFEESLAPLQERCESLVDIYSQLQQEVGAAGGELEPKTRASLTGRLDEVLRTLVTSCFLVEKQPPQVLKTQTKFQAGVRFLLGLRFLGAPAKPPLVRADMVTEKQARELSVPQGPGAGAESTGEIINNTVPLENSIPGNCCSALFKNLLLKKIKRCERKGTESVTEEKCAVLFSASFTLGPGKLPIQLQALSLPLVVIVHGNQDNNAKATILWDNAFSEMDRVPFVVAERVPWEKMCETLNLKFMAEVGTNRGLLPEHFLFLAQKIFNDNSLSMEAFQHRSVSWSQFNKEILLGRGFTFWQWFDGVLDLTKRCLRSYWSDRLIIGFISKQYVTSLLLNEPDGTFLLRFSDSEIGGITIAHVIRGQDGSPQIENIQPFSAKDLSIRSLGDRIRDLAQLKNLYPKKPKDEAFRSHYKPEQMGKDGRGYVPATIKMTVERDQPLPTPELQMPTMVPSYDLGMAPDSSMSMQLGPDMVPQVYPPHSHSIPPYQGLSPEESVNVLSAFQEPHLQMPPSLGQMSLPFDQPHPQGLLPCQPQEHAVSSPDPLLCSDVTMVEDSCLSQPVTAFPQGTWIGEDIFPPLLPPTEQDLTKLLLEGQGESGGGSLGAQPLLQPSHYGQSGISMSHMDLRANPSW
# experiment.summary: STAT6 Degrader Assay (HiBiT based, HeLa LgBiT clone 4.14 cells, luminescence, DC50)
# Type: cell-based
# experimental.context: Emax provided for test compounds with <80% Emax (and 2c15), geometric mean, read-out: STAT6 degradation Emax
Readings of Emax for the listed molecules

{"columns": ["molecule", "Emax"],
 "data": [
  ["Cn1c(CN2CCC(c3ccc(C(=O)N4CCC(CN5CCN(c6ccc(N[C@H]7CCC(=O)NC7=O)cc6F)CC5)CC4)cc3)CC2)cc2c(-c3ccc4[nH]ncc4c3)ccnc21 (single isomer, unassigned) [Example 2c5]", "70 to 80%"],
  ["C[C@@H](c1cc2c(-c3ccc4[nH]c(=O)n(C)c4c3)ccnc2n1C)N1CCC(c2ccc(C(=O)N3CCC(CN4CCN(c5ccc(NC6CCC(=O)NC6=O)cc5F)CC4)CC3)cc2)CC1 (stereo partly drawn) [Example 2c28]", "70 to 80%"],
  ["CN(C(=O)c1ccc(C2CCN(Cc3cc4c(-c5ccc6[nH]ncc6c5)ccnc4n3C)CC2)cc1)c1ccc(CC2CCN(c3ccc(NC4CCC(=O)NC4=O)cc3)CC2)cc1 (stereo not drawn) [Example 2o2]", "60 to 70%"]
]}

* * *

# target.under.test: STAT6 (endogenous, HiBiT-tagged) in HeLa LgBiT clone 4.14 cells (Homo sapiens, UniProt P42226)
# Construct: These cells express endogenous STAT6; host or cells: HeLa LgBiT clone 4.14
# experiment.summary: STAT6 Degrader Assay (HiBiT based, HeLa LgBiT clone 4.14 cells, luminescence, DC50)
# Assay type: cell-based
# experimental.context: DC50 provided for test compounds with >80% Emax, geometric mean, read-out: STAT6 degradation DC50
Parameter log10 of DC50: see the listing below.
measured.quantity: log10 of DC50 (log10 of the value in nM)

{"columns": ["compound", "log10 of DC50"],
 "data": [
  ["CNc1ccc(-c2ccnc3c2cc([C@H](C)N2CCC(c4ccc(C(=O)N5CCn6nc(CN7CCC(c8ccc(N[C@H]9CCC(=O)NC9=O)cc8F)CC7)cc6C5)cc4)CC2)n3C)cn1 (single isomer, unassigned) [Example 2c42]", 0.73],
  ["COCc1nc2cc(-c3ccnc4c3cc(CN3CCC(c5ccc(C(=O)N6CCC(CN7CCN(c8ccc(NC9CCC(=O)NC9=O)cc8F)C[C@H]7C)CC6)cc5)CC3)n4C)ccc2[nH]1 (some centres unmarked) [Example 2f7]", 0.82],
  ["COCc1nc2cc(-c3ccnc4c3cc(CN3CCC(c5ccc(C(=O)N6CCC(CN7CCN(c8ncc(NC9CCC(=O)NC9=O)cc8F)CC7)CC6)cc5)CC3)n4C)ccc2[nH]1 (centres unmarked) [Example 2n6]", 1.07],
  ["CNc1ccc(-c2ccnc3c2cc([C@H](C)N2CC=C(c4c(C)cc(C(=O)N5CCC(CN6CCN(c7ncc(NC8CCC(=O)NC8=O)cc7F)C[C@@H]6C)CC5)cc4F)CC2)n3C)cn1 (some centres unmarked) [Example 2c45]", 1.33],
  ["CNc1ccc(-c2ccnc3c2cc([C@H](C)N2CCC(c4ccc(C(=O)N5CCn6nc(CN7CCC(c8ccc(N[C@@H]9CCC(=O)NC9=O)cc8F)CC7)cc6C5)cc4)CC2)n3C)cn1 (single isomer, unassigned) [Example 2c43]", 0.20]
]}

* * *

# target.under.test: STAT6 (endogenous, HiBiT-tagged) in HeLa LgBiT clone 4.14 cells (Homo sapiens, UniProt P42226)
# Construct: These cells express endogenous STAT6; host or cells: HeLa LgBiT clone 4.14
# experiment.summary: STAT6 Degrader Assay (HiBiT based, HeLa LgBiT clone 4.14 cells, luminescence, DC50)
# Format: cell-based
# experimental.context: DC50 provided for test compounds with >80% Emax, geometric mean, read-out: STAT6 degradation DC50
1.0 if DC50 is below 20 nM. 0.0 if not; exact matches included in 0.0.

{"columns": ["compound", "group.label"],
 "data": [
  ["C[C@@H]1CN(c2ccc(NC3CCC(=O)NC3=O)cc2F)CCN1CC1CCN(C(=O)c2ccc(C3CCN(Cc4cc5c(-c6ccc7[nH]ncc7c6)ccnc5n4C)CC3)cc2)CC1 (stereo partly shown)", 1.0],
  ["C[C@@H](c1cc2c(-c3ccc(N)nc3)ccnc2n1C)N1CCC(c2ccc(C(=O)N3CCC(CN4CCN(c5ccc(N[C@H]6CCC(=O)NC6=O)cc5F)CC4)CC3)cc2)CC1 (single isomer, unassigned) [Example 2c20]", 1.0],
  ["C[C@@H](c1cc2c(-c3ccc(N)nc3)ccnc2n1C)N1CCC(c2ccc(C(=O)N3CCn4nc(CN5CCC(c6ccc(N[C@H]7CCC(=O)NC7=O)cc6F)CC5)cc4C3)cc2)CC1 (single isomer, unassigned)", 1.0],
  ["C[C@@H](c1cc2c(-c3ccc(N)nc3)ccnc2n1C)N1CCC(c2ccc(C(=O)N3CCn4nc(CN5CCC(c6ccc(NC7CCC(=O)NC7=O)cc6F)C(F)(F)C5)cc4C3)cc2)CC1 (stereo partly shown)", 1.0],
  ["C[C@@H](c1cc2c(-c3ccc4[nH]ncc4c3)ccnc2n1C)N1CCC(c2ccc(C(=O)N3CCC(CN4CCN(c5ccc(NC6CCC(=O)NC6=O)cc5F)CC4)CC3)cc2)CC1 (stereo partly shown)", 1.0],
  ["COCc1nc2ccc(-c3ccnc4c3cc([C@H](C)N3CCC(c5ccc(C(=O)N6CCC(CN7CCN(c8ccc(NC9CCC(=O)NC9=O)cc8F)CC7)CC6)cc5)CC3)n4C)cc2[nH]1 (stereo partly shown)", 1.0],
  ["COCc1nc2cc(-c3ccnc4c3cc([C@H](C)N3CCC(c5ccc(C(=O)N6CCC(CN7CCN(c8ccc(N[C@H]9CCC(=O)NC9=O)cc8F)C[C@H]7C)CC6)cc5)CC3)n4C)ccc2[nH]1 (single isomer, unassigned)", 1.0],
  ["CC(c1cc2c(-c3ccc(N)nc3)ccnc2n1C)N1CCC(c2ccc(C(=O)N3CCC(CN4CCN(c5ccc(NC6CCC(=O)NC6=O)cc5F)CC4)CC3)cc2)CC1 (stereo not shown)", 1.0],
  ["CNc1ccc(-c2ccnc3c2cc([C@H](C)N2CCC(c4ccc(C(=O)N5CCC(CN6CCN(c7ncc(NC8CCC(=O)NC8=O)cc7F)CC6)CC5)cc4)CC2)n3C)cn1 (stereo partly shown)", 0.0],
  ["C[C@@H](c1cc2c(-c3ccc(N)cn3)ccnc2n1C)N1CCC(c2ccc(C(=O)N3CCC(CN4CCN(c5ccc(NC6CCC(=O)NC6=O)cc5F)CC4)CC3)cc2)CC1 (stereo partly shown)", 0.0],
  ["C[C@@H](c1cc2c(-c3ccc(N)nc3C#N)ccnc2n1C)N1CCC(c2ccc(C(=O)N3CCC(CN4CCN(c5ccc(NC6CCC(=O)NC6=O)cc5F)CC4)CC3)cc2)CC1 (stereo partly shown)", 0.0],
  ["COCc1nc2cc(-c3ccnc4c3cc([C@H](C)N3CCC(c5ccc(C(=O)N6CCC(CN7CCN(c8ccc(NC9CCC(=O)NC9=O)cc8Cl)CC7)CC6)cc5)CC3)n4C)ccc2[nH]1 (stereo partly shown)", 1.0],
  ["COCc1nc2cc(-c3ccnc4c3cc(CN3CCC(c5ccc(C(=O)N6CCC(CN7CCC(N8CCC(c9ccc(NC%10CCC(=O)NC%10=O)cc9F)CC8)C(F)(F)C7)CC6)cc5)CC3)n4C)ccc2[nH]1 (stereo not shown)", 0.0],
  ["COCc1nc2cc(-c3ccnc4c3cc(CN3CCC(c5ccc(C(=O)N6CCn7nc(CN8CCC(c9ccc(NC%10CCC(=O)NC%10=O)cc9F)C(F)(F)C8)cc7C6)cc5)CC3)n4C)ccc2[nH]1 (stereo not shown)", 1.0],
  ["C[C@@H](c1cc2c(-c3ccc(N)nc3)ccnc2n1C)N1CCC(c2ccc(C(=O)N3CCC(CN4CCN(c5ccc(NC6CCC(=O)NC6=O)cc5F)CC4)CC3)cc2)CC1 (stereo partly shown)", 1.0],
  ["Cn1c(CN2CCC(c3ccc(C(=O)N4CCC(CN5CCN(c6ccc(NC7CCC(=O)NC7=O)cc6)CC5)CC4)cc3)CC2)cc2c(-c3ccc4[nH]ncc4c3)ccnc21 (stereo not shown)", 1.0],
  ["C[C@@H](c1cc2c(-c3ccc4[nH]ncc4c3)ccnc2n1C)N1CCC(c2ccc(C(=O)N3CCC(CN4CCN(c5ncc(NC6CCC(=O)NC6=O)cc5F)CC4)CC3)cc2)CC1 (stereo partly shown)", 1.0],
  ["COCc1nc2cc(-c3ccnc4c3cc(CN3CCC(c5ccc(C(=O)N6CCn7nc(CN8CCC(c9ccc(NC%10CCC(=O)NC%10=O)cc9F)CC8)cc7C6)cc5)CC3)n4C)ccc2[nH]1 (stereo not shown)", 1.0],
  ["COCc1nc2cc(-c3ccnc4c3cc([C@H](C)N3CCC(c5ccc(C(=O)N6CCC(CN7CCN(c8ccc(NC9CCC(=O)NC9=O)cc8C(F)(F)F)CC7)CC6)cc5)CC3)n4C)ccc2[nH]1 (stereo partly shown)", 0.0]
]}

The values you see were collected from patent US20260014147A1.
